System: Stellaria media
assay method text: Post-emergence herbicidal action
Assay type: in vivo
cond: Stellaria media, 504 h, 1280 g/ha, about 3 weeks after treatment, read-out: Stellaria media, herbicidal activity rated visually
Description: Seeds of monocotyledonous and dicotyledonous weeds and crop plants were placed in sandy loam in plastic or wood-fiber pots, covered with soil and cultivated in a greenhouse under controlled growth conditions. 2 to 3 weeks after sowing, the test plants were treated at the one-leaf stage. […]
measure name: pest or weed control at 1280 g/ha (%)
Give your result in % as a bare value.

>>> recorded_value("CC(C)c1nsc(N2C(=O)N(C)CC2O)n1 (stereo not shown) [I.13-5]")
100
>>> recorded_value("CC1=C(Cl)C(=O)N(c2nc(C(C)C)ns2)C1O (stereo not shown) [I.3-5]")
100
>>> recorded_value("CN1CC(O)N(c2ncns2)C1=O (stereo not shown) [I.13-1]")
90
>>> recorded_value("COC(=O)OC1C(C)=C(C)C(=O)N1c1nc(C2CC2)ns1 (stereo not shown) [I.17-11]")
100
>>> recorded_value("CC1=C(C)C(O)N(c2nc(C(C)C)ns2)C1=O (stereo not shown) [I.2-5]")
100
>>> recorded_value("CC1=C(Cl)C(=O)N(c2nc(C3CC3)ns2)C1O (stereo not shown) [I.3-11]")
100

// switching to the query compound
For record CCCc1nsc(N2C(=O)C(C)=C(C)C2O)n1 (stereo not shown) [I.2-4] the listed pest or weed control at 1280 g/ha is 80
